Origin of the recorded values: patent US20230257415A1

Molecular target: GABAA receptor
Experiment: [35S]-TBPS binding assay, rat brain cortical membranes, in the presence of GABA
Conditions: inhibition of 3 nM [35S]-TBPS binding, 5 mM GABA, 90 min, room temp
Here, each record is paired with measured IC50 data.

Solved cases below.
compound: C[C@@]1(O)CC[C@H]2[C@H](CC[C@@H]3[C@@H]2CC[C@]2(C)[C@@H](CNS(=O)(=O)c4ccccc4)CCC[C@@H]32)C1 [Example 25]
test-target: GABAA receptor
IC50: < 100 nM
--
compound: CCOC[C@@]1(O)CC[C@@H]2C3CC[C@]4(C)[C@@H]([C@H](C)NC(=O)c5ccc(C#N)cc5F)CCC[C@H]4[C@@H]3CC[C@@H]2C1 (some centres unmarked) [Example 55]
test-target: GABAA receptor
IC50: 100 to 1000 nM
--
compound: C[C@@]1(O)CC[C@H]2[C@H](CC[C@@H]3[C@@H]2CC[C@]2(C)[C@@H](CNC(=O)c4ccccc4F)CCC[C@@H]32)C1 [Example 30]
test-target: GABAA receptor
IC50: < 100 nM
--
compound: CCOC[C@@]1(O)CC[C@@H]2C3CC[C@]4(C)[C@@H]([C@@H](C)NC(=O)c5ccc(F)cc5F)CCC[C@H]4[C@@H]3CC[C@@H]2C1 (some centres unmarked) [Example 52]
test-target: GABAA receptor
IC50: 100 to 1000 nM

Would you kindly look at the next entry?
Enquiry: // returns reported IC50 for input C[C@@]1(O)CC[C@H]2[C@H](CC[C@@H]3[C@@H]2CC[C@]2(C)[C@@H](CNC(=O)c4ccc(C#N)cc4)CCC[C@@H]32)C1 [Example 34]
Return: 100 to 1000 nM
